Data provenance is paper PMC11542179.

# measuredOn: MSI1 RRM1-RRM2 tandem (Homo sapiens, UniProt O43347 1-200)
# Sequence (O43347 1-200): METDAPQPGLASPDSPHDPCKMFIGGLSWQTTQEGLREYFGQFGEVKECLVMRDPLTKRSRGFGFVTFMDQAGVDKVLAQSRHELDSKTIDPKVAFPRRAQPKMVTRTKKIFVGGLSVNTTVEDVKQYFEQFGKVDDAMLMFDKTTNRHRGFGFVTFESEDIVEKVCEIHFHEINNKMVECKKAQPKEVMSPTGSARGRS
# procedureText: SPR; KD1, bivalent analyte model; SPR, 3'-biotinylated RNA immobilized on dextran sensor chip, protein as analyte; running buffer, salt, pH and temperature not in the material
# experimentalParameters: protein: recombinant; label: 3'-biotin; potential hairpin
propertyMeasured: Kd (nM)

> print(dat)
                                     binder  valuereported
1  CACUCUGUAGUAUGUAGGGUUUAUUU (structured_RNA) [RNA-HP2b]            144
2  AAGCGUUAGUUAUUUAGUCGCUU (structured_RNA) [RNA-HP2a]             45
